Target: CaBem1-D1
Assay: SPOT peptide array binding signal intensity (averaged, normalized) (arbitrary units (background-subtracted, floor 0; scale differs between SH3 domains)); higher = stronger binding of the SH3 domain to the peptide
SPOT peptide array binding signal intensity values by entry
Give the figure by itself; no unit, no explanation.

Illustrative cases are given below, each with its answer.
LKQRFFLMFPKSIIW: 33.5
RPVPPPPPMRTTTEG: 166
QLMKNLPKIPLLNDI: 187
AATTSTPPLPRRRAT: 11
RRRDFGAPANKRPRR: 52.5
VPKEPAPAPPPEPDM: 1.5

Proceeding to the next binder to report its SPOT peptide array binding signal intensity.
Just so you know, measured SPOT peptide array binding signal intensity for `VPPPMQPPPIESSNL` came out at 26
